- ASSAY_DETAILS: qHTS assay to test for compound auto fluorescence at 460 nm (blue) in HepG2 cells (AID 720687); further: on the % scale 0 is the no-effect control and ±100 the full control effect
- CONDITION_DESCRIPTION: autofluorescence 405/460 nm, 1 h; series mostly up to 91.3 µM
Activity calls are given as the source filed them. The call rests on the fitted dose curve; in most records, active means well fitted curve in the direction sought with a large enough effect in the repeat runs; inconclusive means weak or mixed curves; inactive means flat fitted curve, though single readings scatter.

- MOLECULE: "CCN(CC)CCOc1ccc2c(c1)C(=O)c1cc(OCCN(CC)CC)ccc1-2"
  fluorescence, % of fluorescent control: "inactive"
- MOLECULE: "Cc1cc(O)ccc1N"
  fluorescence, % of fluorescent control: "inactive"
- MOLECULE: "O=C(c1ccccc1)c1ccc2n1CCC2C(=O)O (configuration not stated)"
  fluorescence, % of fluorescent control: "inactive"
- MOLECULE: "O=C(NN1CCCC1)NS(=O)(=O)c1ccc(Cl)cc1"
  fluorescence, % of fluorescent control: "inactive"
- MOLECULE: "CC1CCc2cc(F)cc3c(=O)c(C(=O)O)cn1c23 (configuration not stated)"
  fluorescence, % of fluorescent control: "inactive"
- MOLECULE: "CCCCCCCCCCCCCCCCCBr"
  fluorescence, % of fluorescent control: "0.0228% [at 18.6 µM] (inactive)"
- MOLECULE: "CC(=O)/C(C)=C/C1C(C)=CCCC1(C)C (configuration not stated)"
  fluorescence, % of fluorescent control: "inactive"
- MOLECULE: "Cn1c(=O)c2c(ncn2CC(O)CO)n(C)c1=O (configuration not stated)"
  fluorescence, % of fluorescent control: "-0.0218% [at 18.6 µM] (inactive)"
- MOLECULE: "CCCCOC(=O)c1ccccc1C(=O)OCC(CC)CCCC (configuration not stated)"
  fluorescence, % of fluorescent control: "inactive"
- MOLECULE: "CC/C(=C\\C(=N/O)C(N)=O)C(C)[N+](=O)[O-] (configuration not stated)"
  fluorescence, % of fluorescent control: "inactive"
- MOLECULE: "NCc1ccccc1"
  fluorescence, % of fluorescent control: "inactive"
- MOLECULE: "C[C@H](CCC(=O)O)[C@H]1CC[C@H]2[C@@H]3[C@H](O)C[C@@H]4C[C@H](O)CC[C@]4(C)[C@H]3CC[C@]12C"
  fluorescence, % of fluorescent control: "inactive"

====

- MEASURED_TARGET: Nuclear receptor subfamily 1 group I member 2 (Homo sapiens) (UniProt O75469)
- Sequence (O75469 whole entry, looked up): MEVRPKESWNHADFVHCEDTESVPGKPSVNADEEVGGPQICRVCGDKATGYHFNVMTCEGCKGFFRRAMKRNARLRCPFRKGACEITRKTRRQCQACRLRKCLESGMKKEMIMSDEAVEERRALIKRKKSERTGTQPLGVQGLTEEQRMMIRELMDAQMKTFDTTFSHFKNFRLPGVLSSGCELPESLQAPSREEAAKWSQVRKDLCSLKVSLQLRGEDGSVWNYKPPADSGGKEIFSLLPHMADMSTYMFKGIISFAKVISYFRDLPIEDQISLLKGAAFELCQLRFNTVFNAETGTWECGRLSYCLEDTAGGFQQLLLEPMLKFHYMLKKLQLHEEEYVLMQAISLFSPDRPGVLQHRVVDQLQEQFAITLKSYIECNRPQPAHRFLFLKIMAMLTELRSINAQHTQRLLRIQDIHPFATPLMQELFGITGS
- ASSAY_DETAILS: Human pregnane X receptor (PXR) small molecule agonists, qHTS assay (AID 1346982); further: nearly all actives have a fitted effect of over 35% in size; further: potency means the concentration at half of the fitted maximal effect; on activation: on the % scale 0 is the no-effect control and ±100 the full control effect
- CONDITION_DESCRIPTION: PXR-Luc HepG2, CYP3A4 luciferase reporter, 24 h; series mostly up to 92.4 µM
Inconclusive results are not listed. Calls of active or inactive are those of the source. The call rests on the fitted dose curve; in most records, active means well fitted activation curve with a large enough effect in the repeat runs; inconclusive means weak or mixed curves; inactive means no such curve, though single readings can be large or run the other way.
READOUT_LABEL: Potency

- MOLECULE: "CC(Cc1cccc(C(F)(F)F)c1)NCCOC(=O)c1ccccc1 (stereo not drawn)"
  RESULT: "inactive"
- MOLECULE: "Cc1ccc(C(=O)C(C)CN2CCCCC2)cc1 (stereo not drawn)"
  RESULT: "inactive"
- MOLECULE: "CC(=O)NCCCS(=O)(=O)O"
  RESULT: "inactive"
- MOLECULE: "COC(=O)CSc1cc(N=c2sc(=O)n3n2CCCC3)c(F)cc1Cl"
  RESULT: "inactive"
- MOLECULE: "CCOc1ccc2[nH]cc(C(=O)NCc3ccccc3)c(=O)c2n1"
  RESULT: "19.3 µM (active)"
- MOLECULE: "CC(=O)SCc1ccco1"
  RESULT: "inactive"
- MOLECULE: "CCCCCCc1ccc(N)cc1"
  RESULT: "30.6 µM (active)"
- MOLECULE: "CCCCOC(O)CC (stereo not drawn)"
  RESULT: "inactive"
- MOLECULE: "NC(N)=NN=C(/C=C/c1ccc([N+](=O)[O-])o1)/C=C/c1ccc([N+](=O)[O-])o1"
  RESULT: "2.66 µM (active)"
- MOLECULE: "CN1CCC(=C2c3ccccc3C=Cc3ccccc32)CC1"
  RESULT: "inactive"
- MOLECULE: "CCCCc1cc2ccccc2c(OCCN(C)C)n1"
  RESULT: "inactive"
- MOLECULE: "CCN(CC)CCc1nc(-c2ccccc2)no1"
  RESULT: "inactive"
- MOLECULE: "CC(C)(C)C1CCCCC1O (stereo not drawn)"
  RESULT: "inactive"
